Item-by-item account of % max ref. OKT3 (dTomato activation)
target: human CD3 (human, UniProt P07766 23-207; P09693 23-182; P04234 22-171); experiment: cell-based or functional assay
Readout Name: % max ref. OKT3 (dTomato activation)

{"columns": ["Binder", "Reading"],
 "data": [
  ["F332-7B7 (antibody, mouse IgG2a, V domains shown, also called F332-7B7-2) VH: QVQLQQPGTELGKPGTSVKLSCKASGYTFTNYWMHWVKQRPGQGLEWIGNINPNSGSTNYNQKFKSKATLTLDKSSSTAYMQFSTLTSEDSAVYYCTRDSSGQYYFDYWGQGTTLTVSS VL: DIVMSQSPSSLAVSAGEKVTMSCKSSQSLLNSRTRKNYLAWYQQKPGQSPKLLIYWASTRESGVPDRFTGSGSGTDFTLTISSVQAEDLAVYYCIQSFHLRTFGGGTKLEIK", "97%"],
  ["F332-13B4 (antibody, mouse IgG2a, V domains shown, also called F332-13B4-2) VH: QVQLQQSGPELVKPGASVKISCKASGYSFTNSYVHWVKQTPGQGLEWIGWIYPGSTNIKYNEKFKGKATLTADTSSSTVYMQLSSLTSEDSAVYFCARDGSYFFDYWGQGTTLTVSS VL: DIVMSQSPSSLAVSAGEKVTMTCKSSQSLLNSRTRKNYLAWYQQKPGQSPKLLIYWASTRESGVPDRFTGSGSGTDFTLTISSVQAEDLAVYYCKQSYILRTFGGGTKLEIK", "90%"],
  ["F332-7E3 (antibody, mouse IgG2a, V domains shown, also called F332-7E3-2) VH: QVQLQQPGAELGKPGTSVKLSCKASGYTFTSYWIHWVKQRPGQGLEWIGNINPNSGSINYNEKFKSKATLTVDKSSSTAYMQLSTLTSEDFAVYYCTRDTSGQYYFDYWGQGTTLTVSS VL: DIVMSQSPSSLAVSAGEKVTMSCKSSQSLLNSRTRKNYLAWYQQKPGQSPKLLIYWASTRESGVPDRFTGSGSGTDFTLTISSVQAEDLAVYYCKQSYHLRTFGGGTKLEIK", "75%"]
]}
